System: MOLM1 and UCSD/AML1 (averaged)
test-description: cell viability relative to DMSO control (POC); higher = less growth inhibition
condition-context: 1 µM; 72 h
Structures can show the parent of a compound that is named as a salt. Hit rate of the full screen: of about 2,100 compounds, about 180 (8.6%) showed an effect of 50% or more. The entries come from a sample that favours strong results as a whole.
property-label: cell viability (%)

> print(dat)
                                    compound                     measured.on  reading
 1  Oc1ccc2c(c1)OC[C@]1(O)Cc3cc(O)c(O)cc3[C@H]21  MOLM1 and UCSD/AML1 (averaged)      105
 2  O=C(c1ccc(OCCN2CCCCC2)cc1)c1c(-c2ccc(O)cc2)sc2cc(O)ccc12 [Evista (Raloxifene Hydrochloride)]  MOLM1 and UCSD/AML1 (averaged)     95.1
 3  Cc1cc(O)c(C=O)c2c1C(=O)Oc1c(COC(=O)/C=C/C(=O)O)c(O)c(C(=O)O)c(C)c1O2  MOLM1 and UCSD/AML1 (averaged)      104
 4  NC(=O)c1ccc(I)c([N+](=O)[O-])c1 [Iniparib (BSI-201)]  MOLM1 and UCSD/AML1 (averaged)      103
 5  CC(=O)O[C@]1(C)CC[C@@]23C[C@H]1C(C)(C)[C@@H]2CC[C@H]3C  MOLM1 and UCSD/AML1 (averaged)      107
 6            CC(=O)N[C@@H](Cc1ccccc1)C(=O)O  MOLM1 and UCSD/AML1 (averaged)      100
 7                           NC1(C(=O)O)CCC1  MOLM1 and UCSD/AML1 (averaged)      102
 8  O=C(c1ccc(OCCN2CCCCC2)cc1)c1c(-c2ccc(O)cc2)sc2cc(O)ccc12  MOLM1 and UCSD/AML1 (averaged)     83.3
 9               CCCCOc1ccc(OCCCN2CCOCC2)cc1  MOLM1 and UCSD/AML1 (averaged)     97.5
10  COc1cc2nccc(Oc3ccc(NC(=O)Nc4cc(C)on4)c(Cl)c3)c2cc1OC [Tivozanib (AV-951)]  MOLM1 and UCSD/AML1 (averaged)     31.8
